test: in vivo; details: dog, iv, 146 ng/kg/min
Readout Kind: level at 0.5 h (ng/mL)
Answers are plain numbers, in ng/mL.

Field request: level at 0.5 h | item: H-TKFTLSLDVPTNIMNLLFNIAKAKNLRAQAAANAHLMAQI-NH2 [SEQ ID NO: 1]
23.6

====

Assay: Human pharmacokinetics, heart failure subjects, 7.5-hour continuous ascending dose IV infusion
Details: in vivo, infusion rate 3/9/18 ng/kg/min, mean, N = 2, read-out: CL (converted)
Experimental: In heart failure subjects following a 7.5-hour continuous ascending dose IV infusion of h-SCP (SEQ ID NO:1) noncompartmental pharmacokinetic analyses were performed on plasma concentrations of h-SCP (SEQ ID NO:1). The pharmacokinetics of h-SCP (SEQ ID NO:1) in heart failure subjects appeared to be similar to that of healthy subjects. […] Within 30 minutes, plasma h-SCP (SEQ ID NO:1) was reduced to equal or less than 20% of the h-SCP (SEQ ID NO:1) level at the end of the infusion (FIG. 16B).
Readout Kind: clearance (mL/min/kg)
Give bare numbers, in mL/min/kg.

Any idea what its clearance is? The substance is H-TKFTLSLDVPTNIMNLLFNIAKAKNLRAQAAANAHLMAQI-NH2 [SEQ ID NO: 1]
4
